// provenance: ChEMBL document CHEMBL1909046

target.desc: C-C chemokine receptor type 2 (Homo sapiens); note: in other assays of this panel Not Active means under 50% inhibition at 10 µM
Sequence (P41597 whole entry): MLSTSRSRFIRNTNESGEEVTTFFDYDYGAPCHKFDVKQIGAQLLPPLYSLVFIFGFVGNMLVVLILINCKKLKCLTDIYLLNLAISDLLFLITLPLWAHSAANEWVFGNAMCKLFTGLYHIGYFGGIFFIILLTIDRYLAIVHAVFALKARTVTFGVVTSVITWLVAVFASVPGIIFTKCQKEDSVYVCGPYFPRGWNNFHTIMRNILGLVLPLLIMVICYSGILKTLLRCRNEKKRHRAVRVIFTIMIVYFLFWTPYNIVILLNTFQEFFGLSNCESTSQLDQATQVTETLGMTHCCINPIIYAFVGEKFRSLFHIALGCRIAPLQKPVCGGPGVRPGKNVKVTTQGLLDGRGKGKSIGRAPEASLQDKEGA
Type: cell membranes, CHO-K1, Membrane
condition.description: cho-k1
observation.type: IC50

Recorded IC50, per entry:
molecule=COS(C)(=O)=O recorded_measurement="Not Active"
molecule="CC(C)(C)NCC(O)c1cc(O)cc(O)c1 (stereo not given)" recorded_measurement="Not Active"
molecule=O=C(CCCN1CCC(O)(c2ccc(Cl)cc2)CC1)c1ccc(F)cc1 recorded_measurement="Not Active"
molecule=COc1ccc2cc(CC(=O)O)ccc2c1 recorded_measurement="Not Active"

Next, consider the following molecule.
Ask: // query IC50 value for entry COc1c(C)c2c(c(O)c1C/C=C(\C)CCC(=O)OCCN1CCOCC1)C(=O)OC2 [MYCOPHENOLATE MOFETIL]
Reply: Not Active

====

target.desc: Cytochrome P450 2C19 (Homo sapiens, UniProt P33261); note: in other assays of this panel Not Active means under 50% inhibition at 10 µM
Sequence (P33261 whole entry): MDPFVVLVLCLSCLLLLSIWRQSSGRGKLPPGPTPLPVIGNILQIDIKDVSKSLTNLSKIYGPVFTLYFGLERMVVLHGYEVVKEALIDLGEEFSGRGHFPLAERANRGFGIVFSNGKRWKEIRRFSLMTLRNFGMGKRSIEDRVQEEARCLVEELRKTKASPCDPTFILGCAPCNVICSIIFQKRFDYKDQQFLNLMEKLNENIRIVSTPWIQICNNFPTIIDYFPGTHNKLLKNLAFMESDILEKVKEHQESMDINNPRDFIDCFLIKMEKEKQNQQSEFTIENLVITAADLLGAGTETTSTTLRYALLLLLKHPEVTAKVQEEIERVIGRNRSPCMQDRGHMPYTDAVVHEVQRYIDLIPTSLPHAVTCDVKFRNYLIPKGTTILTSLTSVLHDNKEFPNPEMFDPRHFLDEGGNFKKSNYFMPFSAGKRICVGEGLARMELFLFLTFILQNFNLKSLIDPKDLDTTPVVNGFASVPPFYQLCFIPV
condition.description: bti-tn-5b1-4
observation.type: Ki

compound=COc1ccc(CCN2CCC(Nc3nc4ccccc4n3Cc3ccc(F)cc3)CC2)cc1 recorded_measurement="Not Active"
compound=CC(C)(S)[C@@H](N)C(=O)O recorded_measurement="Not Active"
compound=CN(C)[C@@H]1C(O)=C(C(N)=O)C(=O)[C@@]2(O)C(O)=C3C(=O)c4c(O)cccc4[C@@](C)(O)[C@H]3C[C@@H]12 recorded_measurement="Not Active"
compound=CN(N=O)C(=O)N[C@@H](C=O)[C@@H](O)[C@H](O)[C@H](O)CO recorded_measurement="Not Active"
compound=CC(C)[C@H](N)C(=O)OCCOCn1cnc2c(=O)nc(N)[nH]c21 recorded_measurement="Not Active"
compound=N#C[C@H](O[C@@H]1O[C@H](CO[C@@H]2O[C@H](CO)[C@@H](O)[C@H](O)[C@H]2O)[C@@H](O)[C@H](O)[C@H]1O)c1ccccc1 recorded_measurement="Not Active"
compound="CCCC[C@@H](CC)COC(=O)c1ccccc1C(=O)OC[C@@H](CC)CCCC [BIS(2-ETHYLHEXYL)PHTHALATE]" recorded_measurement="Not Active"
compound="NS(=O)(=O)c1cc2c(cc1Cl)NCNS2(=O)=O [HYDROCHLOROTHIAZIDE]" recorded_measurement="Not Active"

Lab note: next compound to report on.
Ask: Provide value of Ki for this record tested with Cytochrome P450 2C19 (Homo sapiens, UniProt P33261): Oc1c(I)cc(I)c2cccnc12
Reply: Not Active

====

target.desc: Beta-1 adrenergic receptor (Homo sapiens, UniProt P08588)
Sequence (P08588 whole entry): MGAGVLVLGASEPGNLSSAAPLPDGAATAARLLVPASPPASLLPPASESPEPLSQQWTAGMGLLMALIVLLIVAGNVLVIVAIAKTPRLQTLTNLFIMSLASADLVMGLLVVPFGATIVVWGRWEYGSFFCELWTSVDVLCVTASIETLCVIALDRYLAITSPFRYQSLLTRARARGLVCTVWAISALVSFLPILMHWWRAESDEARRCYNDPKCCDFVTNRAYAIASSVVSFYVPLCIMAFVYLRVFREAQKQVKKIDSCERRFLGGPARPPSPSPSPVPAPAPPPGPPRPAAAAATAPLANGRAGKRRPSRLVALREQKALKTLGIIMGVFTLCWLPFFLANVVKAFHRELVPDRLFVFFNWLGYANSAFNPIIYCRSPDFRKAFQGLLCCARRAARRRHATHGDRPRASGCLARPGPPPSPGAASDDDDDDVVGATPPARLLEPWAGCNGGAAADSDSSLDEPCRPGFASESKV
experiment.description: DRUGMATRIX: Adrenergic beta1 radioligand binding (ligand: [125I] Cyanopindolol)
Format: cell membranes, CHO-K1, Membrane
condition.description: Not Active = under 50% inhibition at 10 µM; read-out: IC50
observation.type: IC50 (µM)
A number alone suffices; assume µM.

smiles_entry=CN1C[C@H](C(=O)N[C@]2(C)O[C@@]3(O)[C@@H]4CCCN4C(=O)[C@H](Cc4ccccc4)N3C2=O)C=C2c3cccc4[nH]cc(c34)C[C@H]21 observation_type=IC50 unit_spec=µM recorded_measurement=4.14

Could you now look at the following compound, please?
Ask: Quick check: IC50 of Clc1ccccc1C(c1ccccc1)(c1ccccc1)n1ccnc1 ?
Reply: 11.3

====

experiment.description: DRUGMATRIX: Leukotriene, BLT (LTB4) radioligand binding (ligand: [3H]LTB4)
Type: cell membranes, Membrane
condition.description: u-937; Not Active = under 50% inhibition at 10 µM
observation.type: Ki

compound=CC1(C)[C@@H](O[C@H]2O[C@H](C(=O)O)[C@@H](O)[C@H](O)[C@H]2O[C@@H]2O[C@H](C(=O)O)[C@@H](O)[C@H](O)[C@H]2O)CC[C@]2(C)[C@H]3C(=O)C=C4[C@@H]5C[C@@](C)(C(=O)O)CC[C@]5(C)CC[C@@]4(C)[C@]3(C)CC[C@@H]12 observation_type=Ki recorded_measurement="Not Active"
compound=CNCCC=C1c2ccccc2CCc2ccccc21 observation_type=Ki recorded_measurement="Not Active"
compound="CC1COc2c(N3CCN(C)CC3)c(F)cc3c(=O)c(C(=O)O)cn1c23 (stereo not drawn)" observation_type=Ki recorded_measurement="Not Active"

====

target.desc: Sodium-dependent dopamine transporter (Homo sapiens, UniProt Q01959)
Sequence (Q01959 whole entry): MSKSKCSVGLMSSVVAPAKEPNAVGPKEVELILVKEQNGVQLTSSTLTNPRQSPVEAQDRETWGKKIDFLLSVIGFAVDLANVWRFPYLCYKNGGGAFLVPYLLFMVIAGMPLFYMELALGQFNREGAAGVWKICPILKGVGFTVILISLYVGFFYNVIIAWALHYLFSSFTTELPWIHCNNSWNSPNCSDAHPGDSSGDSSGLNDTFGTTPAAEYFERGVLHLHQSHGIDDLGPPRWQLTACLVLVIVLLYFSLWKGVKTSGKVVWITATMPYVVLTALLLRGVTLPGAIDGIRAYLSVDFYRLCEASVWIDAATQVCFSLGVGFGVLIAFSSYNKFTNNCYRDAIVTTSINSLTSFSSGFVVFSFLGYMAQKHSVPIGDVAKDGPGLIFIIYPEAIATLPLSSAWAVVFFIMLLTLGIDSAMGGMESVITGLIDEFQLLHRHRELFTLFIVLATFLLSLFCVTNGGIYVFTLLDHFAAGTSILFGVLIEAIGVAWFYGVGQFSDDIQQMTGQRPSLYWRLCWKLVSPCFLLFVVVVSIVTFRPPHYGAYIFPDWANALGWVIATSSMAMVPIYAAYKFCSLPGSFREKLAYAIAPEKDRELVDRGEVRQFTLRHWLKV
experiment.description: DRUGMATRIX: Dopamine Transporter radioligand binding (ligand: [125I] RTI-55)
Format: cell membranes, CHO-K1, Membrane
condition.description: Not Active = under 50% inhibition at 10 µM; read-out: IC50
Let's look at some compounds and their measured IC50.
Unit nM implied. Number only.

compound=Clc1ccccc1C(c1ccccc1)(c1ccccc1)n1ccnc1 observation_type=IC50 unit_spec=nM recorded_measurement=5580

Ask: What IC50 appears in the records for this compound with Sodium-dependent dopamine transporter (Homo sapiens, UniProt Q01959)? CNCCC=C1c2ccccc2CCc2ccccc21
Reply: 1680

Ask: Give IC50 (Sodium-dependent dopamine transporter (Homo sapiens, UniProt Q01959)) of the following compound: COc1ccc(CN(CCN(C)C)c2ccccn2)cc1
Reply: 879

Ask: Lab note: need IC50 for CCCCCCCCCc1ccc(O)cc1 on Sodium-dependent dopamine transporter (Homo sapiens, UniProt Q01959), anyone have it?
Reply: 1650

Ask: Fill in the recorded IC50 for this compound, with Sodium-dependent dopamine transporter (Homo sapiens, UniProt Q01959) as test system: CC(CCc1ccccc1)NCC(O)c1ccc(O)c(C(N)=O)c1 (stereo unspecified)
Reply: 1610

Ask: GET /values?readout=IC50&system=Sodium-dependent dopamine transporter (Homo sapiens, UniProt Q01959)&item= Clc1ccc(C(c2ccccc2Cl)C(Cl)Cl)cc1 (stereo unspecified)
Reply: 1000

====

Below, each entry is listed alongside its reported pIC50.
experiment.description: DRUGMATRIX: Sigma2 radioligand binding (ligand: [3H] Ifenprodil)
Type: cell membranes, Rattus norvegicus, Wistar, Brain, Membrane
condition.description: Not Active = under 50% inhibition at 10 µM; read-out: IC50
Worth noting: pIC50 values are minus log10 of concentrations stated in mol/L.

Example results:
molecule="CC(CCc1ccccc1)NCC(O)c1ccc(O)c(C(N)=O)c1 (stereo not drawn)" observation_type=pIC50 recorded_measurement=5.55
molecule="CCc1ccc(C(=O)C(C)CN2CCCCC2)cc1 (stereo not drawn)" observation_type=pIC50 recorded_measurement=5.97

Ask: Looking for the measured pIC50 of Cc1ccc(C(=O)C(C)CN2CCCCC2)cc1 (stereo not drawn) , can you help?
Reply: 5.47

====

target.desc: Glycine receptor (Rattus norvegicus, UniProt P22771+P24524+P07727+P20781); note: in other assays of this panel Not Active means under 50% inhibition at 10 µM
Format: cell membranes, Wistar, Spinal cord, Membrane
observation.type: IC50

molecule=CC1=C(/C=C/C(C)=C/C=C/C(C)=C\C(=O)O)C(C)(C)CCC1 target_desc="Glycine receptor (Rattus norvegicus, UniProt P22771+P24524+P07727+P20781)" recorded_measurement="Not Active"
molecule="CCc1ccc(C(=O)C(C)CN2CCCCC2)cc1 (centres undefined)" target_desc="Glycine receptor (Rattus norvegicus, UniProt P22771+P24524+P07727+P20781)" recorded_measurement="Not Active"
molecule="CC(CCc1ccccc1)NCC(O)c1ccc(O)c(C(N)=O)c1 (centres undefined)" target_desc="Glycine receptor (Rattus norvegicus, UniProt P22771+P24524+P07727+P20781)" recorded_measurement="Not Active"
molecule="CC(=O)O[C@]1(C(C)=O)CC[C@H]2[C@@H]3C=C(Cl)C4=CC(=O)CC[C@]4(C)[C@H]3CC[C@@]21C [CHLORMADINONE ACETATE]" target_desc="Glycine receptor (Rattus norvegicus, UniProt P22771+P24524+P07727+P20781)" recorded_measurement="Not Active"

====

target.desc: Estrogen receptor beta (Homo sapiens, UniProt Q92731); note: in other assays of this panel Not Active means under 50% inhibition at 10 µM
Sequence (Q92731 whole entry): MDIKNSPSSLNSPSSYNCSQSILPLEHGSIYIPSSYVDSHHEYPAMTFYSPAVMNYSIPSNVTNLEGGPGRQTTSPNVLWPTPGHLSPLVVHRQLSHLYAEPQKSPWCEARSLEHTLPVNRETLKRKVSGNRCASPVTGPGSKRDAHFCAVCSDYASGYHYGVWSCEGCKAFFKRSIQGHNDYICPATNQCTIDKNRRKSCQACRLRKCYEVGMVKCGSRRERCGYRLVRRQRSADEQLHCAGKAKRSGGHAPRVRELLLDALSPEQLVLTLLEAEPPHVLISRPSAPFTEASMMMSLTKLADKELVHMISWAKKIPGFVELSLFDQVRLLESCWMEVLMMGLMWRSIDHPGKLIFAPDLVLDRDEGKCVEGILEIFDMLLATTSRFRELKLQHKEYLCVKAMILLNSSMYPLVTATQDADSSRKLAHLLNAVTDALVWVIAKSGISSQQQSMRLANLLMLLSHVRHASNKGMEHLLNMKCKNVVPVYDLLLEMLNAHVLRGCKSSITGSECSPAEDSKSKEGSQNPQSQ
condition.description: sf9
observation.type: IC50

Recorded IC50, per entry:
substance=IVERMECTIN target_desc="Estrogen receptor beta (Homo sapiens, UniProt Q92731)" observation_type=IC50 recorded_measurement="Not Active"
substance=OXALIPLATIN target_desc="Estrogen receptor beta (Homo sapiens, UniProt Q92731)" observation_type=IC50 recorded_measurement="Not Active"
substance=CISPLATIN target_desc="Estrogen receptor beta (Homo sapiens, UniProt Q92731)" observation_type=IC50 recorded_measurement="Not Active"
substance=CARBOPLATIN target_desc="Estrogen receptor beta (Homo sapiens, UniProt Q92731)" observation_type=IC50 recorded_measurement="Not Active"

Kindly consider the entry below.
Ask: What measured IC50 is associated with GOLD SODIUM THIOMALATE on Estrogen receptor beta (Homo sapiens, UniProt Q92731)?
Reply: Not Active

====

target.desc: Estrogen receptor beta (Homo sapiens, UniProt Q92731); note: in other assays of this panel Not Active means under 50% inhibition at 10 µM
condition.description: sf9
observation.type: IC50

In the examples that follow, each entry is paired with its recorded IC50.
compound=CN(N=O)C(=O)N[C@@H](C=O)[C@@H](O)[C@H](O)[C@H](O)CO target_desc="Estrogen receptor beta (Homo sapiens, UniProt Q92731)" recorded_measurement="Not Active"
compound="COc1cc(C(=O)NC2CCCNC2)cc(OC)c1OC (stereo not drawn) [TROXIPIDE]" target_desc="Estrogen receptor beta (Homo sapiens, UniProt Q92731)" recorded_measurement="Not Active"
compound=CN(C)[C@@H]1C(O)=C(C(N)=O)C(=O)[C@@]2(O)C(O)=C3C(=O)c4c(O)cccc4[C@@](C)(O)[C@H]3[C@H](O)[C@@H]12 target_desc="Estrogen receptor beta (Homo sapiens, UniProt Q92731)" recorded_measurement="Not Active"
compound=CC1(C)S[C@@H]2[C@H](NC(=O)[C@H](NC(=O)N3CCNC3=O)c3ccccc3)C(=O)N2[C@H]1C(=O)O target_desc="Estrogen receptor beta (Homo sapiens, UniProt Q92731)" recorded_measurement="Not Active"
compound=CC1(C)[C@@H](O[C@H]2O[C@H](C(=O)O)[C@@H](O)[C@H](O)[C@H]2O[C@@H]2O[C@H](C(=O)O)[C@@H](O)[C@H](O)[C@H]2O)CC[C@]2(C)[C@H]3C(=O)C=C4[C@@H]5C[C@@](C)(C(=O)O)CC[C@]5(C)CC[C@@]4(C)[C@]3(C)CC[C@@H]12 target_desc="Estrogen receptor beta (Homo sapiens, UniProt Q92731)" recorded_measurement="Not Active"

Ask: # query: IC50 of entry Nc1ccc(S(N)(=O)=O)cc1 [SULFANILAMIDE]
Reply: Not Active

Ask: // IC50 lookup, key: O=C1CCc2cc(OCCCCc3nnnn3C3CCCCC3)ccc2N1
Reply: Not Active

Ask: # query: IC50 of entry COC(=O)C1=C(C)NC(C)=C(C(=O)OC)C1c1ccccc1[N+](=O)[O-]
Reply: Not Active
